Target: Prolyl 4-hydroxylase (Gallus gallus)
Experiment: ChEBML_157453
pIC50: −log10 of the molar value.
VALUE KIND: pIC50

Here are 5 compounds together with their reported answers.
                               smiles_input                                system  value_kind   val
0            O=C(Nc1ccccc1)c1ccc(C(=O)O)nc1  Prolyl 4-hydroxylase (Gallus gallus)       pIC50  4.58
1        O=C(Nc1ccc(C(=O)O)nc1)c1ccc(Cl)cc1  Prolyl 4-hydroxylase (Gallus gallus)       pIC50  4.65
2       CCOc1ccc(NC(=O)c2ccc(C(=O)O)nc2)cc1  Prolyl 4-hydroxylase (Gallus gallus)       pIC50  5.30
3  O=C(Nc1ccc([N+](=O)[O-])cc1)c1ccc(C(=O)O)nc1  Prolyl 4-hydroxylase (Gallus gallus)       pIC50  4.36
4         O=C(O)c1ccc(/C=C/c2ccc(Cl)cc2)cn1  Prolyl 4-hydroxylase (Gallus gallus)       pIC50  3.82

1: O=C(Nc1ccc(C(=O)O)nc1)c1ccccc1
2: O=C(Nc1ccccc1F)c1ccc(C(=O)O)nc1
3: CN(C)c1ccc(NC(=O)c2ccc(C(=O)O)nc2)cc1
4: O=C(Nc1ccc(C(=O)O)nc1)c1ccc(F)cc1
## Input Arrange these 4 compounds in increasing order of pIC50. Form entry: labels listed in requested order.
## Output 4, 1, 2, 3

1: COc1ccc(NC(=O)c2ccc(C(=O)O)nc2)c(OC)c1
2: COc1cc(NC(=O)c2ccc(C(=O)O)nc2)cc(OC)c1OC
## Input Please tell me which of the two, 1 or 2 , has the higher reported pIC50 value. Answer = label.
## Output 1
(1: 4.78, 2: 4.58)

A: O=C(O)c1ccc(OCc2ccccc2)cn1
B: Cc1ccc(C(=O)Nc2ccc(C(=O)O)nc2)cc1
## Input Please tell me which of the two, A or B , has the higher reported pIC50 value. Answer = label.
## Output B
